Assay: chemical genetic growth profiling, strain panel (AID 1159580);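 also: tested at 20 µM; growth read once vehicle control cultures reached saturation at 30 °C; lower values mean less growth of the strain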
Details: S. cerevisiae deletion strains, growth OD, locus YML070W, strain DAK1
Hit rate of the full screen: of about 5,500 compounds, about 2,000 (36%) were called active. Another 18% or so got no clear call; they are omitted. Rule as the data show it: active = normalized growth mostly below about 0.91 (no sharp cut-off); inconclusive = no clear call, values can overlap the other calls; inactive = mostly above about 0.92. The list shows a part of the results.
Write down one outcome, taken from t (active), f (inactive)

Record excerpt, results attached:
C=CCc1c(CCC)nc(-c2ccccn2)[nH]c1=O
f
Cc1oc(C(C)(C)C)cc1-c1cc(N)n(-c2ccc(I)cc2)n1
f
O=C(c1ccc(Cl)cc1)N(Cc1ccccc1)Cc1cccnc1
f
Cc1nc(-c2ccccn2)[nH]c(=O)c1Cc1c(Cl)cccc1Cl
f
O=S(=O)(c1ccc(Cl)cc1)N(Cc1cccnc1)Cc1ccc(Cl)cc1Cl
t

Asked: Dear colleague, could you share the recorded outcome for `Nc1ccc(Sc2ccccc2)nc1Sc1ccccc1` when you have a moment?
Given back: f

Asked: Moving on to the next compound: `CCOC(=O)c1cc(CC)sc1NC(=O)c1ccc([N+](=O)[O-])o1`
Given back: t

Asked: Moving on to the next compound: `Fc1ccc(NC(=S)N2CCCN(Cc3ccc(Cl)cc3Cl)CC2)cc1`
Given back: f

Asked: Moving on to the next compound: `O=C(NCCNc1ncc(C(F)(F)F)cc1Cl)C(F)(F)Sc1ccccc1`
Given back: f

Asked: Moving on to the next compound: `O=C(NCCc1ccncc1)c1ccc(Cl)c(Cl)c1`
Given back: f

Asked: Moving on to the next compound: O=C(NCC(c1ccccc1)c1c[nH]c2ccccc12)c1ccc(C(F)(F)F)cc1 (configuration not stated)
Given back: f

Asked: Moving on to the next compound: `COC(=O)c1cnn(-c2c(Cl)cccc2Cl)c1C=C(C#N)C#N`
Given back: f

Asked: Moving on to the next compound: `O=C(NCCNc1ncc(Cl)cc1C(F)(F)F)C(F)(F)Sc1ccccc1`
Given back: f

Asked: Moving on to the next compound: `CSc1n[nH]c(-c2cc(C(F)(F)F)cc(C(F)(F)F)c2)n1`
Given back: f

Asked: Moving on to the next compound: `CCCc1nc(-c2ccccn2)[nH]c(=O)c1CC1CC1`
Given back: f
